growth values, listed per item
# Tested on: M14 melanoma
# methodNotes: NCI-60 one-dose screen, 48 h (100 = growth as untreated, 0 = no growth, -100 = all killed)
# conditionNotes: 10 µM unless noted
Compounds without any hit were thinned out: in the full panel of roughly 83,000, 20% have a hit.

{"compound": "C[C@]12CCc3sc(-c4ccccc4O)nc3C1=CC[C@@H]1[C@@H]2CC[C@]2(C)C(=O)CC[C@@H]12", "targetOrSystem": "M14 melanoma", "growth (%)": 106}
{"compound": "CCCc1cc(O)c2c3c(c(=O)oc2c1)CN(C)CC3", "targetOrSystem": "M14 melanoma", "growth (%)": 16.4}
{"compound": "CC(C)=CCC/C(C)=C/C=N\\N=C(/N)N[N+](=O)[O-]", "targetOrSystem": "M14 melanoma", "growth (%)": 102}
{"compound": "CC[C@H](C)[C@H](NC(=O)C12C3C4C1C1C2C3C41NC)C(=O)N(C)[C@H](C[C@@H](OC(C)=O)c1nc(C(=O)N[C@@H](Cc2ccccc2)C[C@H](C)C(=O)OC)cs1)C(C)C (stereo partly specified)", "targetOrSystem": "M14 melanoma", "growth (%)": -14.4}
{"compound": "CCCCCCCCCCCCCCCCCC1OC[C@@H](COC(=O)O[C@@H](C(=O)O[C@H]2C[C@@]3(O)[C@@H](OC(=O)c4ccccc4)[C@@H]4[C@]5(OC(C)=O)CO[C@@H]5C[C@H](O)[C@@]4(C)C(=O)[C@H](OC(C)=O)C(=C2C)C3(C)C)[C@@H](NC(=O)c2ccccc2)c2ccccc2)O1 (stereo partly specified)", "targetOrSystem": "M14 melanoma", "growth (%)": 38.8}
{"compound": "N#CC1(c2ccccc2)CCN(Cc2ccccc2)CC1", "targetOrSystem": "M14 melanoma", "growth (%)": 106}
{"compound": "Cc1ccc(C(=O)NCCCOc2ccc(N)cc2Cl)cc1S(=O)(=O)F", "targetOrSystem": "M14 melanoma", "growth (%)": 97.8}
{"compound": "CC(=O)OC[C@]1(C)C=C2C(=O)[C@](C)(O)C3(CC3)C(C)=C2[C@H]1OC(=O)N(C)CCN(C)C(=O)OC(C)(C)C", "targetOrSystem": "M14 melanoma", "growth (%)": -29.4}
{"compound": "Oc1ccc2c3c1OC1[C@@H](O)CC[C@@]4(O)[C@@H](C2)N(CC2CCC2)CC[C@]314 (stereo partly specified)", "targetOrSystem": "M14 melanoma", "growth (%)": 103}
{"compound": "C1CCC2(CC1)OOCNCOO2", "targetOrSystem": "M14 melanoma", "growth (%)": 100}
{"compound": "C[N+](C)(C)Cc1cc(Cl)ccc1O", "targetOrSystem": "M14 melanoma", "growth (%)": 94.8}

---

growth values, listed per item
# System: BT-549 breast
# methodNotes: NCI-60 one-dose screen, 48 h (100 = growth as untreated, 0 = no growth, -100 = all killed)
# conditionNotes: 10 µM unless noted
# Description: Growth inhibition of the BT-549 human tumor cell line is measured as a screen for anti-cancer activity. Cells are grown in 96 well plates and exposed to the test compound for 48 hours. Compounds are tested at a single concentration, which is 10^-5 M for most compounds. The reported endpoint is percent growth (GI% or GIPRCNT), where numbers from 0 - 100% represent growth inhibition, and numbers from -100% - 0 represent cell death. For example, a value of 40 represents 60% growth inhibition. […]
About 83,000 compounds went through this panel and 20% of them were active in at least one assay; those are over-represented in the sample as a whole.
assayReadout: growth (%)

{"compound": "COc1cc(C=Nc2cccc(C(=O)O)c2)ccc1N(CCCl)CCCl", "assayReadout": "growth", "u": "%", "reported": 103}
{"compound": "O=C(Nc1ccc([As]=[As]c2ccc(NC(=O)c3ccccc3)cc2)cc1)c1ccccc1 (configuration not stated)", "assayReadout": "growth", "u": "%", "reported": -90.4}
{"compound": "CC1=C(CCCOC(=O)[C@H](N)CC(C)C)C2=C(C)C3(CC3)[C@@](C)(O)C(=O)C2=C1", "assayReadout": "growth", "u": "%", "reported": -9.68}
{"compound": "CCOP1(=O)CC(C)=C(Cl)C(P(=O)(OCC)OCC)C1 (configuration not stated)", "assayReadout": "growth", "u": "%", "reported": 112}
{"compound": "O=C(O)C(O)C(O)C1[O][Sb]([c]2ccc([N+](=O)[O-])cc2)[O]C1CO (configuration not stated)", "assayReadout": "growth", "u": "%", "reported": 114}
{"compound": "Clc1cccc(N2COOC3(OOC2)C2CC4CC(C2)CC3C4)c1", "assayReadout": "growth", "u": "%", "reported": 88}
{"compound": "O=C(O)c1ccc([S-])cc1.[Au+].c1ccc(CN2[CH-]N(Cc3ccccc3)C(c3ccccc3)=C2c2ccccc2)cc1", "assayReadout": "growth", "u": "%", "reported": -21.2}
{"compound": "COC(=O)[C@@H](C)C[C@H](Cc1ccccc1)NC(=O)c1csc([C@@H](C[C@H](C(C)C)N(C)C(=O)[C@@H](NC(=O)CN(C)C)C2CC2)OC(C)=O)n1", "assayReadout": "growth", "u": "%", "reported": -21.1}
{"compound": "CN(C)CCCOc1ccc2c(c1)c(C(=O)C(=O)NCCO)cn2Cc1ccccc1", "assayReadout": "growth", "u": "%", "reported": 98.4}
{"compound": "NC(CCl)CCl", "assayReadout": "growth", "u": "%", "reported": 107}
{"compound": "CCCC(C)C1(CC)C(=O)NC(=O)N(C)C1=O (configuration not stated)", "assayReadout": "growth", "u": "%", "reported": 105}
{"compound": "OCCNC(Cc1ccccc1)c1ccc2c(c1)OCO2 (configuration not stated)", "assayReadout": "growth", "u": "%", "reported": 81.2}
{"compound": "Cc1ccc(Nc2nc3c(s2)C2=CC[C@@H]4[C@H](CC[C@]5(C)C(=O)CC[C@@H]45)[C@@]2(C)CC3)cc1", "assayReadout": "growth", "u": "%", "reported": 24.7}
{"compound": "COC(=O)[C@@H](C)C[C@H](Cc1ccc2ccccc2c1)NC(=O)c1csc([C@@H](C[C@H](C(C)C)N(C)C(=O)[C@@H](NC(=O)[C@H]2CCCCN2C)C(C)C)OC(C)=O)n1", "assayReadout": "growth", "u": "%", "reported": -22.3}
{"compound": "C[C@]12CCc3nc(Nc4ccccc4F)sc3C1=CC[C@@H]1[C@@H]2CC[C@]2(C)C(=O)CC[C@@H]12", "assayReadout": "growth", "u": "%", "reported": 66.2}
{"compound": "COC(=O)[C@@H](C)C[C@H](Cc1ccccc1)NC(=O)c1csc([C@@H](C[C@H](C(C)C)N(C)C(=O)[C@@H](NC(=O)[C@H]2CCCCN2C)C(C(F)(F)F)C(F)(F)F)OC(C)=O)n1", "assayReadout": "growth", "u": "%", "reported": -21.6}
{"compound": "Cc1cc(C)cc(Nc2nc3c(s2)CC[C@@]2(C)C3=CC[C@@H]3[C@@H]2CC[C@]2(C)C(=O)CC[C@@H]32)c1", "assayReadout": "growth", "u": "%", "reported": 47.2}
{"compound": "N#Cc1c(Br)n(C2OC(CO)C(O)C2O)c2ncnc(N)c12 (configuration not stated)", "assayReadout": "growth", "u": "%", "reported": 73.5}
{"compound": "COC1=CC(=O)O[C@@H](/C=C/c2ccc3c(c2)OCO3)C1", "assayReadout": "growth", "u": "%", "reported": 95}
{"compound": "CNC(=O)Oc1ccc(N(C)C)cc1C(C)C", "assayReadout": "growth", "u": "%", "reported": 73.6}
{"compound": "CC[C@H](C)[C@H](NC(=O)C12C3C4C1C1C2C3C41NC)C(=O)N(C)[C@H](C[C@@H](OC(C)=O)c1nc(C(=O)N[C@@H](Cc2ccccc2)C[C@H](C)C(=O)OC)cs1)C(C)C (some centres not stated)", "assayReadout": "growth", "u": "%", "reported": 2.04}
{"compound": "COC(=O)[C@]12CCC(C)(C)C[C@H]1[C@H]1C(=O)C[C@@H]3[C@@]4(C)C[C@@]5(CC(C)(C)[C@@H]4CC[C@@]3(C)[C@]1(C)CC2)OO[C@@](C)(C(F)(F)F)O5", "assayReadout": "growth", "u": "%", "reported": 111}
{"compound": "O=C([O][Hg][c]1ccccc1)c1ccccc1", "assayReadout": "growth", "u": "%", "reported": -92.7}
{"compound": "CCCCCCCCCCCCNC(c1ccccc1)C(O)c1ccccc1 (configuration not stated)", "assayReadout": "growth", "u": "%", "reported": 103}
{"compound": "COc1ccc(/C=C\\c2cc(OC)c(OC)c(OC)c2)c(NS(=O)(=O)c2ccc(C)cc2)c1O", "assayReadout": "growth", "u": "%", "reported": 30.6}
{"compound": "C=C1[C@@H](C)[C@H]2[C@H](Cc3ccccc3)NC(=O)[C@]23[C@@H](O)/C=C/[C@@](C)(O)C(=O)[C@@H](C)C/C=C/[C@H]3[C@@H]1O", "assayReadout": "growth", "u": "%", "reported": 63.1}
{"compound": "CCCCCCCCCCCCCCCCCCOc1ccccc1COP(=O)(O)OOCC[N+](C)(C)C", "assayReadout": "growth", "u": "%", "reported": 25.5}
{"compound": "C/C=C(\\C)C(=O)O[C@@H]1C(O)[C@H]2OC(COC(=O)CCC(=O)CCCCCC[C@H](CCCCC)O[C@@H]3OC(C)[C@H](OC(C)=O)C(O)[C@H]3O2)[C@H]1OC(=O)/C=C/c1ccccc1 (some centres not stated)", "assayReadout": "growth", "u": "%", "reported": 22.1}
{"compound": "c1cc2c(c3c1CCNC3)OCO2", "assayReadout": "growth", "u": "%", "reported": 97.4}
{"compound": "COC1OC(CO)C(O)C(O)[CH]1[Hg][O]C(C)=O (configuration not stated)", "assayReadout": "growth", "u": "%", "reported": 103}
{"compound": "CCCCN1CCCC[C@@H]1C(=O)N[C@H](C(=O)N(C)[C@H](CCc1nc(C(=O)N[C@@H](Cc2ccccc2)C[C@H](C)C(=O)OC)cs1)C(C)C)[C@@H](C)CC", "assayReadout": "growth", "u": "%", "reported": 36.4}
{"compound": "CCC(O)(CN)c1ccccc1 (configuration not stated)", "assayReadout": "growth", "u": "%", "reported": 104}

Just for reference, PubChem BioAssay (NCI) is where these values come from.
